# method: Chemical stability of the compound assessed as compound remaining after enzymatic degradation after 24 hrs
# Type: physicochemical
# settings: read-out: Activity
property: remaining at 24 h (%)
Write the number in % without appending the unit.

Entry Ac-KLVFFA-NH2 , remaining at 24 h reported as 36

Reported remaining at 24 h of Ac-IGLMVG-NH2 : 20

====

# method: Aqueous solubility of the compound at pH 7.4
# Type: physicochemical
I'd appreciate it if you could supply solubility values for the items below.
Please state the value followed by its unit.

solubility in this record for Ac-KLVFFA-NH2 : 32 µM

solubility for Ac-IGLMVG-NH2 is 3 µM

====

Hi there, I'd appreciate the recorded Papp for every entry that follows.
# method: Apparent permeability across rat 2/4/A1 cells in absence of pronase inhibitor
# Type: ADME, cell-based
Hi! Could you send only the number? It should be in ×10⁻⁶ cm/s, unit omitted.

Short answer for Ac-KLVFFA-NH2 : Papp was 2.8

Lab note: measured Papp of Ac-IGLMVG-NH2 was 3.1

====

# method: Aqueous solubility of the compound at pH 7.4
# Assay type: physicochemical
Square brackets hold non-standard residues; d marks the D form. Peptide text beside a SMILES is read from it. NMeF = CN[C@@H](Cc1ccccc1)C(=O)O; NMeI = CC[C@H](C)[C@H](NC)C(=O)O; NMeL = CN[C@@H](CC(C)C)C(=O)O; NMeV = CN[C@H](C(=O)O)C(C)C; NMeA = CN[C@@H](C)C(=O)O; Sar = CNCC(=O)O
Exercise: for every item that follows, state its recorded solubility.

Looking up CC(=O)N[C@@H](CCCCN)C(=O)N(C)[C@@H](CC(C)C)C(=O)N(C)[C@H](C(=O)N(C)[C@@H](Cc1ccccc1)C(=O)N(C)[C@@H](Cc1ccccc1)C(=O)N(C)[C@@H](C)C(N)=O)C(C)C (Ac-K[NMeL][NMeV][NMeF][NMeF][NMeA]-NH2) , I found its solubility recorded as 899 µM

// recorded solubility for CC[C@H](C)[C@@H](C(=O)N(C)CC(=O)N(C)[C@@H](CC(C)C)C(=O)N[C@@H](CCSC)C(=O)N(C)[C@H](C(=O)N(C)CC(N)=O)C(C)C)N(C)C(C)=O (Ac-[NMeI][Sar][NMeL]M[NMeV][Sar]-NH2) : > 2500 µM

For CC[C@H](C)[C@H](NC(C)=O)C(=O)N(C)CC(=O)N[C@@H](CC(C)C)C(=O)N[C@@H](CCSC)C(=O)N[C@H](C(=O)N(C)CC(N)=O)C(C)C (Ac-I[Sar]LMV[Sar]-NH2) the compound record lists solubility as > 2500 µM

# solubility of CC(=O)N[C@@H](CCCCN)C(=O)N(C)[C@@H](CC(C)C)C(=O)N[C@H](C(=O)N(C)[C@@H](Cc1ccccc1)C(=O)N[C@@H](Cc1ccccc1)C(=O)N(C)[C@@H](C)C(N)=O)C(C)C (Ac-K[NMeL]V[NMeF]F[NMeA]-NH2) = > 2500 µM

For reference, reported solubility for CC[C@H](C)[C@@H](C(=O)NCC(=O)N(C)[C@@H](CC(C)C)C(=O)N[C@@H](CCSC)C(=O)N(C)[C@H](C(=O)NCC(N)=O)C(C)C)N(C)C(C)=O (Ac-[NMeI]G[NMeL]M[NMeV]G-NH2) stands at > 2500 µM

solubility in this record for CC(=O)N[C@@H](CCCCN)C(=O)N[C@@H](CC(C)C)C(=O)N(C)[C@H](C(=O)N[C@@H](Cc1ccccc1)C(=O)N(C)[C@@H](Cc1ccccc1)C(=O)N[C@@H](C)C(N)=O)C(C)C (Ac-KL[NMeV]F[NMeF]A-NH2) : 1580 µM
